Recorded below: pIC50, system UniProt:Q15418.
Sequence (Q15418 whole entry): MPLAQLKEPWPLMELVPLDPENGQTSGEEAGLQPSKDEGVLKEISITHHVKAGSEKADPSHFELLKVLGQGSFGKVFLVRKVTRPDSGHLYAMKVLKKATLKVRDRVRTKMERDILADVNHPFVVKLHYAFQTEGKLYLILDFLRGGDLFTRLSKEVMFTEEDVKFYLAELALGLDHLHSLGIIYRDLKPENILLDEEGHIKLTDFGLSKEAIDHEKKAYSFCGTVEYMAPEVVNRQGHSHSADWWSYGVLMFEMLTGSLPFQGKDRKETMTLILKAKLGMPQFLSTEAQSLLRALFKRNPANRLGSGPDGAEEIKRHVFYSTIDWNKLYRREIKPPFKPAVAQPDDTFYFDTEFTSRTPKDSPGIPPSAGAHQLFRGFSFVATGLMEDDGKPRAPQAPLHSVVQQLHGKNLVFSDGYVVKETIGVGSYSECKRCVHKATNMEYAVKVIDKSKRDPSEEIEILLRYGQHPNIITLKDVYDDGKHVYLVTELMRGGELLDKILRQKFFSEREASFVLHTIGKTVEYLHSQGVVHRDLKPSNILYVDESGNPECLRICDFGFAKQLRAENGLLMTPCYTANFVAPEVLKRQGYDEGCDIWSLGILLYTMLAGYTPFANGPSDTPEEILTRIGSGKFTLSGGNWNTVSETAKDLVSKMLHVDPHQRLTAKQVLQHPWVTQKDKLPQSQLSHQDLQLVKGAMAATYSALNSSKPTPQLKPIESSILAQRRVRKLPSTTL
pIC50: −log10 of the molar value.

Requested read-out: pIC50. Entry: "CC(C)(C)c1nnc2ccc(-c3ocnc3-c3cc(F)c(F)cc3F)cn12"
< 5.00

"CCNc1nnc2ccc(-c3ocnc3-c3ccc(F)cc3)cn12" , same question.
< 5.00

###

assay: Volume of distribution in rat; assay type: ADME, organism-based; details: in vivo, read-out: Vdss
Answer each item with its documented Vd.
Lab book: enter the figure in L/kg, no units written.

Requested read-out: Vd. Entry: "CC(C)c1nnc2ccc(-c3ocnc3-c3ccc(F)cc3)cn12"
0.8

"CC(C)c1nnc2ccc(-c3ocnc3-c3cccc(Cl)c3)cn12" , same question.
1

"CC(C)(C)c1nnc2ccc(-c3ocnc3-c3cc(F)c(F)cc3F)cn12" , same question.
0.6

"CC(C)c1nnc2ccc(-c3ocnc3-c3ccc(F)c(Cl)c3)cn12" , same question.
1.3

"CC(C)c1nnc2ccc(-c3ocnc3-c3cc(F)ccc3F)cn12" , same question.
0.8

###

Answer each item with its documented inhibition at 3 µM.
target: UniProt Q12809; assay: Inhibition of hERG channel current in HEK293 cells at 3 uM; assay type: toxicity, cell-based; settings: HEK293 cells that express hERG
Sequence (Q12809 whole entry): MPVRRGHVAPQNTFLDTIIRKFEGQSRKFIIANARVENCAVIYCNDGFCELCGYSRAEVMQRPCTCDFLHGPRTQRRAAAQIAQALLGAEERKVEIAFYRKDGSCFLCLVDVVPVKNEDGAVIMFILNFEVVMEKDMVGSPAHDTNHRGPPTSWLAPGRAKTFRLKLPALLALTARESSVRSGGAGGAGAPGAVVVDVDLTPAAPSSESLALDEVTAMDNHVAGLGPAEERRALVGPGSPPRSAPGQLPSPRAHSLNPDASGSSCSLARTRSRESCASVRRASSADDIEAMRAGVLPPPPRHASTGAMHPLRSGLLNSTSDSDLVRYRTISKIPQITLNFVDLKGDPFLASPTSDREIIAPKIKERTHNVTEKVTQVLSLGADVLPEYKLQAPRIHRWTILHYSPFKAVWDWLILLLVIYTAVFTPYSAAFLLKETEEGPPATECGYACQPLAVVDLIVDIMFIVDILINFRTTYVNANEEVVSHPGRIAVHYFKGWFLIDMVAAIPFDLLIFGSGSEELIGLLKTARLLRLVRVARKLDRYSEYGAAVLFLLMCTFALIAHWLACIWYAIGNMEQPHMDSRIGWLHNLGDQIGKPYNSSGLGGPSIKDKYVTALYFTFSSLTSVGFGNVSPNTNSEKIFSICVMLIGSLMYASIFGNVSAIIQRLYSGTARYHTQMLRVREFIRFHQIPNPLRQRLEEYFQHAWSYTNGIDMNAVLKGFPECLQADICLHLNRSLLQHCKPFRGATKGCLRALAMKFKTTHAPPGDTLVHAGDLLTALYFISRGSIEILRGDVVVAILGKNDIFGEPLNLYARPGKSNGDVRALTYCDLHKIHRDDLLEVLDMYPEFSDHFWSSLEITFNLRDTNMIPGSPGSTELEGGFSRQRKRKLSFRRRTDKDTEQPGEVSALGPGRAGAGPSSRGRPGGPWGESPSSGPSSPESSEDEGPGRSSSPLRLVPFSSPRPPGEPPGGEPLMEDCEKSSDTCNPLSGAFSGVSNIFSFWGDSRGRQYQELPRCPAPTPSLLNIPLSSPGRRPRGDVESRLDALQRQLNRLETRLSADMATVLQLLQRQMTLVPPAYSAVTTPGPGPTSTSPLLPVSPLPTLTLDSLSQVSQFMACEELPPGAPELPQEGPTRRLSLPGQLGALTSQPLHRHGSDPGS
Lab book: enter the figure in %, no units written.

Requested read-out: inhibition at 3 µM. Entry: "CC(C)c1nnc2ccc(-c3ocnc3-c3ccc(F)cc3Cl)cn12"
0

"CC(C)c1nnc2ccc(-c3ocnc3-c3cccc(Cl)c3)cn12" , same question.
14

"CC(C)(C)c1nnc2ccc(-c3ocnc3-c3cc(F)c(F)cc3F)cn12" , same question.
5.9

###

Answer each item with its documented IC50.
biological target: Mitogen-activated protein kinase 12 (Homo sapiens); experiment: Inhibition of p38-gamma
Sequence (P53778 whole entry): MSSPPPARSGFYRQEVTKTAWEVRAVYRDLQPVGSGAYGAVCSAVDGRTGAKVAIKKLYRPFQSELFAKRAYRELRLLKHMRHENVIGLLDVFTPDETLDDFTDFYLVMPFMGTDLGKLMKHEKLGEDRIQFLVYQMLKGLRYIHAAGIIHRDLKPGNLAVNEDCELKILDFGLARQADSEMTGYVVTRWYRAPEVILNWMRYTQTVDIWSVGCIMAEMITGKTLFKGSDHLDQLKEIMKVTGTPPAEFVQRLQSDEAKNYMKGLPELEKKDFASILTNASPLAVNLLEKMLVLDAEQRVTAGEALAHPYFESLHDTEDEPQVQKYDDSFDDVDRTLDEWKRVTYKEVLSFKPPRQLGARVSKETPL

What reported IC50 corresponds to "CC(C)(C)c1nnc2ccc(-c3ocnc3-c3ccc(F)cc3F)cn12" on Mitogen-activated protein kinase 12 (Homo sapiens)?
> 10 µM

"CC(C)c1nnc2ccc(-c3ocnc3-c3ccc(F)cc3Cl)cn12" , same question.
> 10 µM

"CCNc1nnc2ccc(-c3ocnc3-c3ccc(F)cc3)cn12" , same question.
> 10 µM

"CC(C)(C)c1nnc2ccc(-c3ocnc3-c3cc(F)c(F)cc3F)cn12" , same question.
> 10 µM

"CC(C)c1nnc2ccc(-c3ocnc3-c3ccccc3)cn12" , same question.
> 10 µM

"CC(C)c1nnc2ccc(-c3c[nH]nc3-c3cc(F)ccc3F)cn12" , same question.
> 10 µM

###

experiment: Bioavailability in monkey; format: ADME, organism-based, Macaca mulatta; settings: rhesus monkey, in vivo
Classify by measured bioavailability: Y if it is equal to or exceeds 70%, N if it is smaller.

Evaluate "CC(C)c1nnc2ccc(-c3ocnc3-c3cc(F)ccc3F)cn12" : bioavailability at minimum 70%?
N

"CC(C)(C)c1nnc2ccc(-c3ocnc3-c3cc(F)c(F)cc3F)cn12" , same question.
N

"CC(C)c1nnc2ccc(-c3ocnc3-c3ccc(F)cc3)cn12" , same question.
Y

"CC(C)c1nnc2ccc(-c3ocnc3-c3cccc(Cl)c3)cn12" , same question.
N

"CC(C)c1nnc2ccc(-c3ocnc3-c3ccc(F)c(Cl)c3)cn12" , same question.
N

###

biological target: Mitogen-activated protein kinase 14 (Homo sapiens, UniProt Q16539); assay: Inhibition of p38alpha
Sequence (Q16539 whole entry): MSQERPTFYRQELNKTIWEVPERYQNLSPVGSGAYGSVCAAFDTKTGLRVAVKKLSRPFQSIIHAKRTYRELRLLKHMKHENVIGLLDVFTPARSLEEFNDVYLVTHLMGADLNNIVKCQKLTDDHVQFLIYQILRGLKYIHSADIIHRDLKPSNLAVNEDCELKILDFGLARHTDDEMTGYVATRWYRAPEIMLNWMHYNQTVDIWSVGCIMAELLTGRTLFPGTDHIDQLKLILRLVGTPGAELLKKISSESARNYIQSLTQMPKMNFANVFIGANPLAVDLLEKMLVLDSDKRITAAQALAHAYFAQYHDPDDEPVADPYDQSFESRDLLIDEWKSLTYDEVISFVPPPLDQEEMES
PARAMETER: pIC50
Give only the number. pIC50 is defined as minus log10 of concentration in molar units.

Requested read-out: pIC50. Entry: "CCCNc1nnc2ccc(-c3ocnc3-c3ccc(F)cc3)cn12"
6.70

"CCNc1nnc2ccc(-c3ocnc3-c3ccccc3)cn12" , same question.
8.27

"Fc1cc(F)c(-c2ncoc2-c2ccc3nnc(C4CC4)n3c2)cc1F" , same question.
8.11

"CC(C)c1nnc2ccc(-c3ocnc3-c3ccc(Cl)cc3)cn12" , same question.
7.75

"CC(C)c1nnc2ccc(-c3ocnc3-c3cccc(F)c3)cn12" , same question.
7.42

"CC(C)c1nnc2ccc(-c3ocnc3-c3ccccc3Cl)cn12" , same question.
8.52

"CC(C)Cc1nnc2ccc(-c3ocnc3-c3ccc(F)cc3)cn12" , same question.
8.06

"c1ccc(-c2ncoc2-c2ccc3nnc(C4CCC4)n3c2)cc1" , same question.
7.78

"FC(F)(F)Cc1nnc2ccc(-c3ocnc3-c3ccccc3)cn12" , same question.
7.08

"CCc1nnc2ccc(-c3ocnc3-c3ccccc3)cn12" , same question.
7.26

"Cc1cccc(-c2ncoc2-c2ccc3nnc(C(C)C)n3c2)c1" , same question.
7.74

"CC(C)c1nnc2ccc(-c3ocnc3-c3cc(Cl)ccc3F)cn12" , same question.
8.29

"CC(C)c1nnc2ccc(-c3ocnc3-c3ccc(Cl)c(Cl)c3)cn12" , same question.
7.58

"CC1(c2nnc3ccc(-c4ocnc4-c4cc(F)ccc4F)cn23)CC1" , same question.
8.52

"Fc1ccc(F)c(-c2ncoc2-c2ccc3nnc(C4CCC4)n3c2)c1" , same question.
8.01

"c1ccc(-c2ncoc2-c2ccc3nnc(C4CC4)n3c2)cc1" , same question.
7.33

"CC(C)(C)c1nnc2ccc(-c3ocnc3-c3cc(F)ccc3F)cn12" , same question.
8.06

"CC(C)(C)c1nnc2ccc(-c3ocnc3-c3cc(F)c(F)cc3F)cn12" , same question.
8.74

"Fc1ccc(-c2ncoc2-c2ccc3nnc(-c4ccccc4)n3c2)cc1" , same question.
7.91

"Fc1ccc(-c2ncoc2-c2ccc3nnc(N4CCCC4)n3c2)cc1" , same question.
7.81

"Cc1cc(-c2ncoc2-c2ccc3nnc(C(C)C)n3c2)ccc1F" , same question.
8.18

"Fc1cc(F)c(-c2ncoc2-c2ccc3nnc(C4CCC4)n3c2)cc1F" , same question.
8.04

"CC(C)c1nnc2ccc(-c3ocnc3-c3cc(F)c(F)cc3F)cn12" , same question.
8.49

"CC1(c2nnc3ccc(-c4ocnc4-c4ccc(F)cc4)cn23)CCC1" , same question.
7.85

###

Answer each item with its documented Papp B→A.
experiment: Permeability from basolateral to apical side of Caco-2 cell membrane; type: ADME, cell-based; conditions: human
Lab book: enter the figure in ×10⁻⁶ cm/s, no units written.

Requested read-out: Papp B→A. Entry: "CC(C)c1nnc2ccc(-c3[nH]cnc3-c3cc(F)ccc3F)cn12"
32

"CC(C)c1nnc2ccc(-c3ocnc3-c3cc(F)ccc3F)cn12" , same question.
29

"CC(C)c1nnc2ccc(-c3c[nH]nc3-c3cc(F)ccc3F)cn12" , same question.
18

"CC(C)c1nnc2ccc(-c3cnoc3-c3cc(F)ccc3F)cn12" , same question.
29

###

Answer each item with its documented half-life.
experiment: Half life in monkey; format: ADME, organism-based, Macaca mulatta; settings: rhesus monkey, in vivo
Field note: include the unit after the figure.

Requested read-out: half-life. Entry: "CC(C)c1nnc2ccc(-c3ocnc3-c3ccc(F)c(Cl)c3)cn12"
4.7 h

"CC(C)c1nnc2ccc(-c3ocnc3-c3ccc(F)cc3)cn12" , same question.
1.3 h

"CC(C)(C)c1nnc2ccc(-c3ocnc3-c3cc(F)c(F)cc3F)cn12" , same question.
5.2 h

"CC(C)c1nnc2ccc(-c3ocnc3-c3cccc(Cl)c3)cn12" , same question.
1.1 h

###

Answer each item with its documented IC50.
molecular target: Protein kinase C alpha type (Homo sapiens, UniProt P17252)

Requested read-out: IC50. Entry: "CCNc1nnc2ccc(-c3ocnc3-c3ccc(F)cc3)cn12"
> 10 µM

"CC(C)c1nnc2ccc(-c3ocnc3-c3ccc(F)cc3Cl)cn12" , same question.
> 10 µM

###

Answer each item with its documented pIC50.
molecular target: Ribosomal protein S6 kinase (P70S6K) (Homo sapiens, UniProt P23443+Q9UBS0); assay: Inhibition of P70S6K; format: protein-complex assay
Sequence (Q9UBS0 whole entry): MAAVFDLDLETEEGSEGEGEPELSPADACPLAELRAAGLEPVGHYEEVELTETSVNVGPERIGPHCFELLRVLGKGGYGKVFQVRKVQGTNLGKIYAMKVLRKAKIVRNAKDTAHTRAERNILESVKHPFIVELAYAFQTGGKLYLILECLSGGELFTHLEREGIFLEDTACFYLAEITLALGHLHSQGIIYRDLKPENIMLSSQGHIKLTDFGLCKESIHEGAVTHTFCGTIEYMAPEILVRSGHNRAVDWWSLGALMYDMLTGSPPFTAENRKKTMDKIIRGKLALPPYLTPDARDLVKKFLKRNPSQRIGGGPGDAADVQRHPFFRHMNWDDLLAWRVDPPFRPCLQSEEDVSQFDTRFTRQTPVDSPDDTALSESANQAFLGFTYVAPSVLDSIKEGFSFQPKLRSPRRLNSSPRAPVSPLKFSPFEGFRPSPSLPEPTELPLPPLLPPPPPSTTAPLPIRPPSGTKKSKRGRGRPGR
Sequence (P23443 whole entry): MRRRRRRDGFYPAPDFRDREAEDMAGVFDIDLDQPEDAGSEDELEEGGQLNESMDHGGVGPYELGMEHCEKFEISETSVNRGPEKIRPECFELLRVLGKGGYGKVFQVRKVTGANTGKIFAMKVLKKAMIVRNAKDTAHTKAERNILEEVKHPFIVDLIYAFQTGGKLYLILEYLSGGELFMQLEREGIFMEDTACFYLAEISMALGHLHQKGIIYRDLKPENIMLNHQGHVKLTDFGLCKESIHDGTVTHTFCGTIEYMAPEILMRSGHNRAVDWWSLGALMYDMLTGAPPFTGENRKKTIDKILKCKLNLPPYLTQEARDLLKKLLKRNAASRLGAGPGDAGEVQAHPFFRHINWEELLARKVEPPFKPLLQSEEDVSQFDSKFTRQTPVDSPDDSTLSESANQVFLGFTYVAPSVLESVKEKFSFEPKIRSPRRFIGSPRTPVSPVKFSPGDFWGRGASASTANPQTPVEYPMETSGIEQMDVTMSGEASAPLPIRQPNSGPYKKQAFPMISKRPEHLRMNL
pIC50: −log10 of the molar value.

Requested read-out: pIC50. Entry: "CCNc1nnc2ccc(-c3ocnc3-c3ccc(F)cc3)cn12"
< 5.00

"CC(C)(C)c1nnc2ccc(-c3ocnc3-c3cc(F)c(F)cc3F)cn12" , same question.
< 5.00

"CC(C)c1nnc2ccc(-c3ocnc3-c3ccccc3)cn12" , same question.
< 5.00

"CC(C)c1nnc2ccc(-c3c[nH]nc3-c3cc(F)ccc3F)cn12" , same question.
< 5.00

"CC(C)(C)c1nnc2ccc(-c3ocnc3-c3ccc(F)cc3F)cn12" , same question.
< 5.00

"CC(C)c1nnc2ccc(-c3ocnc3-c3cc(F)c(F)cc3F)cn12" , same question.
< 5.00

###

biological target: Mitogen-activated protein kinase 14 (Homo sapiens); assay: Inhibition of p38alpha
PARAMETER: IC50 (µM)
Lab book: enter the figure in µM, no units written.

What reported IC50 corresponds to "CCOc1nnc2ccc(-c3ocnc3-c3ccc(F)cc3)cn12" on Mitogen-activated protein kinase 14 (Homo sapiens)?
0.0555

"FC(F)c1nnc2ccc(-c3ocnc3-c3ccccc3)cn12" , same question.
0.544

"CCOc1ccccc1-c1nnc2ccc(-c3ocnc3-c3ccc(F)cc3)cn12" , same question.
0.0004

"CC(C)c1nnc2ccc(-c3ocnc3-c3cccc(Cl)c3)cn12" , same question.
0.0135

"Fc1ccc(-c2ncoc2-c2ccc3nnc(C4CCC4)n3c2)cc1" , same question.
0.0177

"CC(C)c1nnc2ccc(-c3ocnc3-c3c(F)cccc3F)cn12" , same question.
0.0146

"CC(C)c1nnc2ccc(-c3ocnc3-c3ccc(F)c(F)c3)cn12" , same question.
0.0223

"CC(C)Oc1nnc2ccc(-c3ocnc3-c3ccc(F)cc3)cn12" , same question.
0.0179

"CC(C)c1nnc2ccc(-c3ocnc3-c3ccc(Cl)c(F)c3)cn12" , same question.
0.0432

"Fc1ccc(-c2ncoc2-c2ccc3nnc(C4CC4)n3c2)cc1" , same question.
0.0109

"CC(C)c1nnc2ccc(-c3[nH]cnc3-c3cc(F)ccc3F)cn12" , same question.
0.0062

"CC(C)c1nnc2ccc(-c3ocnc3-c3ccccc3)cn12" , same question.
0.0096

"CC(C)c1nnc2ccc(-c3ocnc3-c3cccc(Cl)c3Cl)cn12" , same question.
0.0145
